test system: Hepatitis C virus; assay: Antiviral activity against HCV1b con1 infected in human Huh-7 cells assessed as inhibition of viral replication after 24 hrs in presence of 50% normal human serum; assay type: functional, organism-based, Hepacivirus hominis; settings: Con1, Huh-7, 24 h
pIC50: −log10 of the molar value.
Value type: pIC50

Given smiles | Measured target | Value type | Observed measurement
C=C[C@@H]1C[C@]1(NC(=O)[C@@H]1C[C@@H]2CN1C(=O)[C@H](C1CCCCC1)NC(=O)OCC(C)(C)CCCc1cc3c(cc(-c4cccnc4)nc3cc1OC)O2)C(=O)NS(=O)(=O)C1CC1 | Hepatitis C virus | pIC50 | 7.04
C=C[C@@H]1C[C@]1(NC(=O)[C@@H]1C[C@@H]2CN1C(=O)[C@H](C1CCCCC1)NC(=O)OCC(C)(C)CCCc1cc3c(cc(NC)nc3cc1OC)O2)C(=O)NS(=O)(=O)C1CC1 | Hepatitis C virus | pIC50 | 7.05
C=C[C@@H]1C[C@]1(NC(=O)[C@@H]1C[C@@H]2CN1C(=O)[C@H](C1CCCCC1)NC(=O)OCC(C)(C)CCCc1cc3c(cc(-c4ccccc4)nc3cc1OC)O2)C(=O)NS(=O)(=O)C1CC1 | Hepatitis C virus | pIC50 | 7.55
C=C[C@@H]1C[C@]1(NC(=O)[C@@H]1C[C@@H]2CN1C(=O)[C@H](C1CCCCC1)NC(=O)OCC(C)(C)CCCc1cc3c(cc(-c4ccccc4OC)nc3cc1OC)O2)C(=O)NS(=O)(=O)C1CC1 | Hepatitis C virus | pIC50 | 7.51
C=C[C@@H]1C[C@]1(NC(=O)[C@@H]1C[C@@H]2CN1C(=O)[C@H](C1CCCC1)NC(=O)OCC(C)(C)CCCc1cc3c(nc4cc(C#N)ccc4c3cc1OC)O2)C(=O)NS(=O)(=O)C1CC1 | Hepatitis C virus | pIC50 | 7.89
C=C[C@@H]1C[C@]1(NC(=O)[C@@H]1C[C@@H]2CN1C(=O)[C@H](C1CCCC1)NC(=O)OCC(C)(C)CCCc1cc3c(nc4cc(C)ccc4c3cc1OC)O2)C(=O)NS(=O)(=O)C1CC1 | Hepatitis C virus | pIC50 | 7.82
C=C[C@@H]1C[C@]1(NC(=O)[C@@H]1C[C@@H]2CN1C(=O)[C@H](C1CCCCC1)NC(=O)OCC(C)(C)CCCc1cc3c(cc(-c4ccc(OC)cc4)nc3cc1OC)O2)C(=O)NS(=O)(=O)C1CC1 | Hepatitis C virus | pIC50 | 7.60
C=C[C@@H]1C[C@]1(NC(=O)[C@@H]1C[C@@H]2CN1C(=O)[C@H](C1CCCCC1)NC(=O)OCC(C)(C)CCCc1cc3c(cc(O)nc3cc1OC)O2)C(=O)NS(=O)(=O)C1CC1 | Hepatitis C virus | pIC50 | 6.34
C=C[C@@H]1C[C@]1(NC(=O)[C@@H]1C[C@@H]2CN1C(=O)[C@H](C1CCCCC1)NC(=O)OCC(C)(C)CCCc1cc3c(cc(OCC)nc3cc1OC)O2)C(=O)NS(=O)(=O)C1CC1 | Hepatitis C virus | pIC50 | 7.37
C=C[C@@H]1C[C@]1(NC(=O)[C@@H]1C[C@@H]2CN1C(=O)[C@H](C1CCCCC1)NC(=O)OCC(C)(C)CCCc1cc3c(cc(OC)nc3cc1OC)O2)C(=O)NS(=O)(=O)C1CC1 | Hepatitis C virus | pIC50 | 7.72
C=C[C@@H]1C[C@]1(NC(=O)[C@@H]1C[C@@H]2CN1C(=O)[C@H](C1CCCCC1)NC(=O)OCC(C)(C)CCCc1cc3c(cc(-c4cccc(OC)c4)nc3cc1OC)O2)C(=O)NS(=O)(=O)C1CC1 | Hepatitis C virus | pIC50 | 7.72
C=C[C@@H]1C[C@]1(NC(=O)[C@@H]1C[C@@H]2CN1C(=O)[C@H](C1CCCCC1)NC(=O)OCC(C)(C)CCCc1cc3c(cc4nccn4c3cc1OC)O2)C(=O)NS(=O)(=O)C1CC1 | Hepatitis C virus | pIC50 | 6.85
C=C[C@@H]1C[C@]1(NC(=O)[C@@H]1C[C@@H]2CN1C(=O)[C@H](C1CCCC1)NC(=O)OCC(C)(C)CCCc1cc3c(cc(OCc4ncn(C)n4)nc3cc1OC)O2)C(=O)NS(=O)(=O)C1CC1 | Hepatitis C virus | pIC50 | 6.77
C=C[C@@H]1C[C@]1(NC(=O)[C@@H]1C[C@@H]2CN1C(=O)[C@H](C1CCCC1)NC(=O)OCC(C)(C)CCCc1cc3c(nc4ccc(Cl)cc4c3cc1OC)O2)C(=O)NS(=O)(=O)C1CC1 | Hepatitis C virus | pIC50 | 7.51
C=C[C@@H]1C[C@]1(NC(=O)[C@@H]1C[C@@H]2CN1C(=O)[C@H](C1CCCC1)NC(=O)OCC(C)(C)CCCc1cc3c(cc(OCC)nc3cc1OC)O2)C(=O)NS(=O)(=O)C1CC1 | Hepatitis C virus | pIC50 | 7.96
